- System: JJN-3 (Plasma Cell Myeloma)
- ASSAY_PROTOCOL: Bliss excess, mean over the matrix (fraction); higher = more synergy;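 further: after 72 h of two-drug dosing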
Give measured Bliss excess for each item. Keep answers brief.
Give bare numbers.

Some compounds with recorded Bliss excess:
{"COMPOUND": "Cc1c2c(nn1C)CSCc1cc(n(C)n1)CSc1cc(c3ccccc3c1)OCCCc1c(C(=O)O)n(C)c3c-2c(Cl)ccc13 [AZD5991] + Cc1cc2ncnn2cc1Nc1ncc2c(n1)n(C1CCOCC1)c(=O)n2C [AZD7648] (first compound max 1 µM, 7x7, partner max 10 µM)", "NUMERIC_RESULT": 0.0324}
{"COMPOUND": "COc1cccc(OCCCN)c1-c1cc(Nc2cnc(C#N)cn2)n[nH]1 [Prexasertib] + CCc1c2c(nc3ccc(O)cc13)-c1cc3c(c(=O)n1C2)COC(=O)[C@]3(O)CC [SN-38] (first compound max 1 µM, 7x7, partner max 0.3 µM)", "NUMERIC_RESULT": 0.0314}
{"COMPOUND": "COc1nnc2ccc(N3CCC(c4ccc(OCCN5CCN(C)C(=O)[C@H]5C)cc4)CC3)nn12 [AZD5153] + C=CCn1c(=O)c2cnc(Nc3ccc(N4CCN(C)CC4)cc3)nc2n1-c1cccc(C(C)(C)O)n1 [AZD1775] (first compound max 1 µM, partner max 1 µM)", "NUMERIC_RESULT": -0.0673}
{"COMPOUND": "NC1(C(=O)N[C@@H](CCO)c2ccc(Cl)cc2)CCN(c2ncnc3[nH]ccc23)CC1 [Capivasertib] + CC(C)n1c(=O)n(C)c2cnc3cc(F)c(-c4ccc(OCCCN5CCCCC5)nc4)cc3c21 [AZD1390] (first compound max 10 µM, 7x7, partner max 0.3 µM)", "NUMERIC_RESULT": -0.0105}
{"COMPOUND": "COc1cccc(OCCCN)c1-c1cc(Nc2cnc(C#N)cn2)n[nH]1 [Prexasertib] + C[C@@H]1COCCN1C2=NC(=NC(=C2)C3(CC3)[S@](=N)(=O)C)C4=C5C=CNC5=NC=C4 [AZD6738] (first compound max 1 µM, 7x7, partner max 10 µM)", "NUMERIC_RESULT": -0.0519}
{"COMPOUND": "C[C@@H]1COCCN1c1cc(C2([S@](C)(=N)=O)CC2)nc(-c2ccnc3[nH]ccc23)n1 [AZD6738] + O=C(c1cc(Cc2n[nH]c(=O)c3ccccc23)ccc1F)N1CCN(C(=O)C2CC2)CC1 [Olaparib] (first compound max 10 µM, 7x7, partner max 10 µM)", "NUMERIC_RESULT": -0.0548}

Query: Request the reported Bliss excess associated with COc1cccc(OCCCN)c1-c1cc(Nc2cnc(C#N)cn2)n[nH]1 [Prexasertib] + C=CCn1c(=O)c2cnc(Nc3ccc(N4CCN(C)CC4)cc3)nc2n1-c1cccc(C(C)(C)O)n1 [AZD1775] (first compound max 1 µM, partner max 1 µM)
Response: 0.085

* * *

- Tested on: NCI-H2170 (Squamous Cell Lung Carcinoma)
- ASSAY_PROTOCOL: Bliss excess, mean over the matrix (fraction); higher = more synergy
Would you please tag the item label 1 when its Bliss excess is 0.01 or above, and label 0 when it is below?

{"MOLECULE": "Cc1c2c(nn1C)CSCc1cc(n(C)n1)CSc1cc(c3ccccc3c1)OCCCc1c(C(=O)O)n(C)c3c-2c(Cl)ccc13 [AZD5991] + CC1(C)CCC(CN2CCN(c3ccc(C(=O)NS(=O)(=O)c4ccc(NCC5CCOCC5)c([N+](=O)[O-])c4)c(Oc4cnc5[nH]ccc5c4)c3)CC2)=C(c2ccc(Cl)cc2)C1 [Venetoclax] (first compound max 1 µM, 7x7, partner max 1 µM)", "CLASS_LABEL": "label 0"}

Query: Reported Bliss excess at or above 0.01? CN(CCO)CC[C@H](CSc1ccccc1)Nc1ccc(S(=O)(=O)NC(=O)c2ccc(N3CCC([C@@H](O)c4ccccc4-c4ccc(Cl)cc4)CC3)cc2)cc1S(=O)(=O)C(F)(F)F [AZD4320] + C=CCn1c(=O)c2cnc(Nc3ccc(N4CCN(C)CC4)cc3)nc2n1-c1cccc(C(C)(C)O)n1 [AZD1775] (first compound max 1 µM, partner max 1 µM)
Response: label 1

Query: Reported Bliss excess at or above 0.01? CC1(C)CCC(CN2CCN(c3ccc(C(=O)NS(=O)(=O)c4ccc(NCC5CCOCC5)c([N+](=O)[O-])c4)c(Oc4cnc5[nH]ccc5c4)c3)CC2)=C(c2ccc(Cl)cc2)C1 [Venetoclax] + CN(C)CCCOc1ccc(-c2ccc3ncc4c(c3c2)n(C2CCOCC2)c(=O)n4C)cn1 [AZD0156] (first compound max 1 µM, 7x7, partner max 1 µM)
Response: label 1

Query: Reported Bliss excess at or above 0.01? CC1(C)CCC(CN2CCN(c3ccc(C(=O)NS(=O)(=O)c4ccc(NCC5CCOCC5)c([N+](=O)[O-])c4)c(Oc4cnc5[nH]ccc5c4)c3)CC2)=C(c2ccc(Cl)cc2)C1 [Venetoclax] + CCN(CCO)CCCOc1ccc2c(Nc3cc(CC(=O)Nc4cccc(F)c4)[nH]n3)ncnc2c1 [AZD2811] (first compound max 1 µM, 7x7, partner max 1 µM)
Response: label 0

Query: Reported Bliss excess at or above 0.01? COc1cccc2c1C(=O)c1c(O)c3c(c(O)c1C2=O)C[C@@](O)(C(=O)CO)C[C@@H]3O[C@H]1C[C@H](N)[C@H](O)[C@H](C)O1 [Doxorubicin] + Cc1cc2ncnn2cc1Nc1ncc2c(n1)n(C1CCOCC1)c(=O)n2C [AZD7648] (first compound max 1 µM, 7x7, partner max 10 µM)
Response: label 1

Query: Reported Bliss excess at or above 0.01? C=CCn1c(=O)c2cnc(Nc3ccc(N4CCN(C)CC4)cc3)nc2n1-c1cccc(C(C)(C)O)n1 [AZD1775] + O=C(c1cc(Cc2n[nH]c(=O)c3ccccc23)ccc1F)N1CCN(C(=O)C2CC2)CC1 [Olaparib] (first compound max 1 µM, partner max 10 µM)
Response: label 0
